- MEASUREMENT DESCRIPTION: Drug uptake in human HeLa cells at 20 uM incubated for 1 hr at 4 degC by fluorescence based analysis
- Format: ADME, cell-based
MEASURED ATTRIBUTE: Drug uptake (pmol)

[I] O=C(O)c1ccc(-c2ccc(-c3ccc(N(c4ccccc4)c4ccccc4)cc3)s2)s1
[II] O=C(O)CCc1ccc(-c2ccc(-c3ccc(N(c4ccccc4)c4ccccc4)cc3)s2)s1
Prompt: Which value of Drug uptake is smaller, the one for I or the one for II ? Refer to your chosen entry by its label in the reply.
Completion: II

[a] c1ccc(N(c2ccccc2)c2ccc(-c3ccc(-c4cccs4)s3)cc2)cc1
[b] C[n+]1ccc(/C=C/c2ccc(-c3ccc(-c4ccc(N(c5ccccc5)c5ccccc5)cc4)s3)s2)cc1.[I-]
[c] O=C(O)/C=C/c1ccc(-c2ccc(-c3ccc(N(c4ccccc4)c4ccccc4)cc3)s2)s1
Prompt: Arrange by Drug uptake, high to low. Form entry: labels listed in requested order.
Completion: b, a, c
(b: 344 pmol, a: 68 pmol, c: 40 pmol)
